Test: Blocking experiment 1: co-injection of (dl)-vesamicol with radiotracer
Format: in vivo, male Wistar rats
Details: rat, liver, iv, Group 1: radiotracer alone, 60 min, read-out: Blocking study, liver
value kind: tissue uptake at 1 h (%ID/g)
State the answer as a number, implicitly in %ID/g.

Task item: Please report the recorded tissue uptake at 1 h for O[C@@H]1CCN(Cc2cccc([125I])c2)C[C@H]1N1CCC(c2ccccc2)CC1 (single isomer, unassigned) [(-)-[^125 I]12h] .
Reply: 2.45

* * *

Experiment: Blocking experiment 2: effect of vesamicol pretreatment on radiotracer accumulation
Format: in vivo, male Wistar rats
Conditions: rat, muscle, iv, 2 uCi, Group 1: vehicle pretreatment, 30 min postradiotracer; read-out: Accumulation after pretreatment, muscle
value kind: tissue uptake at 0.5 h (%ID/g)
Note: unit %ID/g is implicit; provide only the numeric part.

Task item: For O[C@@H]1CCN(Cc2cccc([125I])c2)C[C@H]1N1CCC(c2ccccc2)CC1 (single isomer, unassigned) [(-)-[^125 I]12h] , what is its reported tissue uptake at 0.5 h?
Reply: 0.18

* * *

Experiment: Tissue distribution of radiotracer in rats
Type: in vivo, male Wistar rats
Settings: rat, brain; 5 min, iv; read-out: Tissue distribution, brain
value kind: tissue uptake at 5 min (%ID/g)
Could you give me the number in %ID/g? Just the number is fine.

Task item: # tissue uptake at 5 min lookup, item O[C@@H]1CCN(Cc2cccc([125I])c2)C[C@H]1N1CCC(c2ccccc2)CC1 (single isomer, unassigned) [(-)-[^125 I]12h]
Reply: 0.92

* * *

Assay: Tissue distribution of radiotracer in rats
Type: in vivo, male Wistar rats
Conditions: rat, spleen; 5 min, iv; read-out: Tissue distribution, spleen
Protocol: Tissue Distribution Experiments Four groups of male Wistar rats (n=4) weighing 200-350 g were used in these experiments. […] The organs and tissues of interest were harvested, transferred to preweighed tubes and counted in a Beckman gamma counter. […] Preweighed tubes containing 1 mL samples of a 1:100 dilution of the injected dose were also counted and used as reference for calculating the tissue accumulation of radioactivity. […]
value kind: tissue uptake at 5 min
Express your answer as a number followed by its unit.

Task item: // returns reported tissue uptake at 5 min for input O[C@@H]1CCN(Cc2cccc([125I])c2)C[C@H]1N1CCC(c2ccccc2)CC1 (single isomer, unassigned) [(-)-[^125 I]12h]
Reply: 1.04 %ID/g

* * *

Experiment: Tissue distribution of radiotracer in rats
Type: in vivo, male Wistar rats
Details: rat, liver; 5 min, iv; read-out: Tissue distribution, liver
value kind: tissue uptake at 5 min (%ID/g)
The reply should contain only the number, in %ID/g.

Task item: Dear colleague, I am looking for the recorded tissue uptake at 5 min of the following molecule: O[C@@H]1CCN(Cc2cccc([125I])c2)C[C@H]1N1CCC(c2ccccc2)CC1 (single isomer, unassigned) [(-)-[^125 I]12h]
Reply: 2.07

* * *

Assay: Blocking experiment 1: co-injection of (dl)-vesamicol with radiotracer
Type: in vivo, male Wistar rats
Settings: rat, thyroid, iv, Group 2: with (dl)vesamicol hydrochloride, 60 min, read-out: Blocking study, thyroid
value kind: tissue uptake at 1 h (%ID/g)
The answer is to be given in %ID/g; state only the numeric part.

Task item: Name the reported tissue uptake at 1 h value associated with the compound O[C@@H]1CCN(Cc2cccc([125I])c2)C[C@H]1N1CCC(c2ccccc2)CC1 (single isomer, unassigned) [(-)-[^125 I]12h]
Reply: 6.55

* * *

Experiment: Blocking experiment 1: co-injection of (dl)-vesamicol with radiotracer
Type: in vivo, male Wistar rats
Conditions: rat, muscle, iv, Group 1: radiotracer alone, 60 min, read-out: Blocking study, muscle
value kind: tissue uptake at 1 h (%ID/g)
Use %ID/g as the unit, but write only the number.

Task item: For the compound O[C@@H]1CCN(Cc2cccc([125I])c2)C[C@H]1N1CCC(c2ccccc2)CC1 (single isomer, unassigned) [(-)-[^125 I]12h] , what tissue uptake at 1 h is on record?
Reply: 0.26

* * *

Assay: Blocking experiment 2: effect of vesamicol pretreatment on radiotracer accumulation
Format: in vivo, male Wistar rats
Conditions: rat, heart, iv, 2 uCi, Group 2: (dl)vesamicol.HCl 1.01 umol/Kg pretreatment, 30 min postradiotracer; read-out: Accumulation after pretreatment, heart
value kind: tissue uptake at 0.5 h
Answer format: number, then unit.

Task item: Return reported tissue uptake at 0.5 h; argument: O[C@@H]1CCN(Cc2cccc([125I])c2)C[C@H]1N1CCC(c2ccccc2)CC1 (single isomer, unassigned) [(-)-[^125 I]12h]
Reply: 0.3 %ID/g

* * *

Test: Blocking experiment 1: co-injection of (dl)-vesamicol with radiotracer
Type: in vivo, male Wistar rats
Details: rat, muscle, iv, Group 2: with (dl)vesamicol hydrochloride, 60 min, read-out: Blocking study, muscle
value kind: tissue uptake at 1 h (%ID/g)
Please state the figure in %ID/g; there is no need to write the unit.

Task item: Given O[C@@H]1CCN(Cc2cccc([125I])c2)C[C@H]1N1CCC(c2ccccc2)CC1 (single isomer, unassigned) [(-)-[^125 I]12h] , state its recorded tissue uptake at 1 h.
Reply: 0.12

* * *

Test: Tissue distribution of radiotracer in rats
Assay type: in vivo, male Wistar rats
Conditions: rat, heart; 180 min, iv; read-out: Tissue distribution, heart
value kind: tissue uptake at 3 h (%ID/g)
Form entry: value (%ID/g) — number only.

Task item: Look up tissue uptake at 3 h for this molecule: O[C@@H]1CCN(Cc2cccc([125I])c2)C[C@H]1N1CCC(c2ccccc2)CC1 (single isomer, unassigned) [(-)-[^125 I]12h]
Reply: 0.5

* * *

Test: Blocking experiment 2: effect of vesamicol pretreatment on radiotracer accumulation
Type: in vivo, male Wistar rats
Settings: rat, liver, iv, 2 uCi, Group 1: vehicle pretreatment, 30 min postradiotracer; read-out: Accumulation after pretreatment, liver
value kind: tissue uptake at 0.5 h (%ID/g)
Kindly provide the numeric value in %ID/g only, without the unit symbol.

Task item: Given O[C@@H]1CCN(Cc2cccc([125I])c2)C[C@H]1N1CCC(c2ccccc2)CC1 (single isomer, unassigned) [(-)-[^125 I]12h] , state its recorded tissue uptake at 0.5 h.
Reply: 1.91

* * *

Test: Blocking experiment 1: co-injection of (dl)-vesamicol with radiotracer
Assay type: in vivo, male Wistar rats
Conditions: rat, lung, iv, Group 2: with (dl)vesamicol hydrochloride, 60 min, read-out: Blocking study, lung
value kind: tissue uptake at 1 h
Mention the unit after the number when you answer.

Task item: Any idea what tissue uptake at 1 h was measured for O[C@@H]1CCN(Cc2cccc([125I])c2)C[C@H]1N1CCC(c2ccccc2)CC1 (single isomer, unassigned) [(-)-[^125 I]12h] ?
Reply: 0.76 %ID/g

* * *

Experiment: Tissue distribution of radiotracer in rats
Assay type: in vivo, male Wistar rats
Details: rat, spleen; 60 min, iv; read-out: Tissue distribution, spleen
value kind: tissue uptake at 1 h (%ID/g)
Provide the reading as a plain figure in %ID/g.

Task item: Look at this compound and give its reported tissue uptake at 1 h. O[C@@H]1CCN(Cc2cccc([125I])c2)C[C@H]1N1CCC(c2ccccc2)CC1 (single isomer, unassigned) [(-)-[^125 I]12h]
Reply: 1.17

* * *

Test: Tissue distribution of radiotracer in rats
Assay type: in vivo, male Wistar rats
Conditions: rat, muscle; 180 min, iv; read-out: Tissue distribution, muscle
value kind: tissue uptake at 3 h

Task item: Given O[C@@H]1CCN(Cc2cccc([125I])c2)C[C@H]1N1CCC(c2ccccc2)CC1 (single isomer, unassigned) [(-)-[^125 I]12h] , state its recorded tissue uptake at 3 h.
Reply: 0.27 %ID/g

* * *

Test: Blocking experiment 2: effect of vesamicol pretreatment on radiotracer accumulation
Format: in vivo, male Wistar rats
Conditions: rat, muscle, iv, 2 uCi, Group 2: (dl)vesamicol.HCl 1.01 umol/Kg pretreatment, 30 min postradiotracer; read-out: Accumulation after pretreatment, muscle
Experimental: Two separate experiments each utilizing two groups of male Wistar rats (n=3) were performed. […] At time = 0, animals in group 1 injected intravenously with vehicle (50%) aq. EtOH; 0.2 ml), while animals in group 2 each received an i.v. injection of (dl)vesamicol. HCl (1.01 umol/Kg0). After 15 min, both group were injected with the radiotracer, allowed to recover and sacrificed 30 min postradiotracer injection.
value kind: tissue uptake at 0.5 h (%ID/g)
The response must be a number in %ID/g with no trailing unit.

Task item: Consider the compound O[C@@H]1CCN(Cc2cccc([125I])c2)C[C@H]1N1CCC(c2ccccc2)CC1 (single isomer, unassigned) [(-)-[^125 I]12h] and give its measured tissue uptake at 0.5 h.
Reply: 0.16

* * *

Assay: Tissue distribution of radiotracer in rats
Type: in vivo, male Wistar rats
Settings: rat, blood; 60 min, iv; read-out: Tissue distribution, blood
value kind: tissue uptake at 1 h
Hey, just the number and the unit after it is fine.

Task item: Recorded tissue uptake at 1 h of O[C@@H]1CCN(Cc2cccc([125I])c2)C[C@H]1N1CCC(c2ccccc2)CC1 (single isomer, unassigned) [(-)-[^125 I]12h] , please.
Reply: 0.1 %ID/g
